# Test system: 786-0
# procedure.text: NCI tumour cell line growth inhibition, 48 h
Active and inactive are the calls of the source. Cut-off read from the data, not from the text of the source: active = GI50 up to about 1.1 µM and inactive = higher.
Write down one outcome, taken from yes (active), no (inactive)

Example cases with answers are listed next.
1. OC[C@H]1CC(c2nn[nH]n2)[C@H](O)[C@@H]1O (some centres undefined) :: no
2. CN1CC(c2ccccc2)=CC2=C1C=CC(=N)/C2=N\N :: no
3. FC(F)(F)c1cc(C2SCc3nc4ccccc4n32)cc(C(F)(F)F)c1 (centres undefined) :: no

Query: State the result this test recorded for COC1(OC)CC2C(=O)N(Cc3ccccc3)C1C(S(=O)(=O)c1ccccc1)C2C(C)S(=O)(=O)c1ccccc1 (centres undefined) .
Result: no

Query: Can you handle "N#Cc1ccc(Nc2nc3[nH]cnc3c(=O)[nH]2)cc1" next?
Result: no

Query: Can you handle "CN(C)CCNc1nc2c(no[n+]2[O-])c2ccccc12.[O-][Cl+3]([O-])([O-])O" next?
Result: no

Query: Can you handle COC(C(=O)C(O)C(C)O)C1CC2C=C3C=C(OC4CC(OC5CC(O)C(OC)C(C)O5)C(OC(C)=O)C(C)O4)C(C)C(O)=C3C(O)=C2C(=O)C1OC1CC(OC2CC(OC3CC(C)(O)C(OC(=O)C(C)C)C(C)O3)C(O)C(C)O2)C(O)C(C)O1 (centres undefined) next?
Result: yes

Query: Can you handle "CC(C)C[C@H](NC(=O)[C@H](Cc1ccc(F)cc1)NC(=O)c1ccccn1)B(O)O" next?
Result: yes

Query: Can you handle "Cc1nc(-c2ccccc2)c(-c2ccccc2)s1" next?
Result: no

* * *

# Test system: A549
# procedure.text: NCI tumour cell line growth inhibition, 48 h
The source made the active and inactive calls. Cut-off read from the data, not from the text of the source: active = GI50 up to about 1.1 µM and inactive = higher.
Please provide measured GI50 for the entries that follow.

1) CCCCCCCCCOCC(COP(=O)([O-])OCC[N+](C)(C)C)OC (stereo not given) :: > 100 µM (inactive)
2) CCCCCCc1ccc(O)cc1O [HEXYLRESORCINOL] :: 40.6 µM (inactive)
3) Cc1c(/C=N/NS(=O)(=O)c2ccccc2)no[n+]1[O-] :: > 100 µM (inactive)

Dear colleague, could you please provide GI50 for the compounds listed below?
1. Nc1nc(-c2ccccc2)nc2oc(-c3cccs3)nc12
2. CC(C)(C)c1cc2c3c(c1)C(C(F)(F)F)(C(F)(F)F)O[Te]3(C)OC2(C(F)(F)F)C(F)(F)F

Result:
["> 100 µM (inactive)", "> 100 µM (inactive)"]

* * *

# System: HL-60
# procedure.text: NCI tumour cell line growth inhibition, 48 h
Active and inactive are the calls of the source. Rule as the data show it: active = GI50 up to about 1.1 µM and inactive = higher.
Write down one outcome, taken from YES for active, NO for inactive

1. O=C(N/N=C\c1cccc2ccccc12)Nc1ccccc1 :: NO
2. CCCOC1OC(CS(=O)(=O)O)C(OC(C)=O)C(OC(C)=O)C1OC(C)=O (stereo not drawn) :: NO
3. CCCCCCCCOc1ccc(/C=C/C2=[N+](CCO)CCO2)cc1 :: NO
4. COc1ccc2nc3c(C(=O)NCCN(C)C)cccc3nc2c1 :: NO
5. COc1ccc2c(c1)NC1(CCN(CCCC(=O)c3ccc(F)cc3)CC1)N=N2 :: NO

Query: State the result this test recorded for "CCNc1nnc(CSc2nc(-c3ccccc3)c(-c3ccccc3)[nH]2)s1" .
Result: NO

Query: Can you handle "CCCCCCNC(=O)c1cnc(Cl)cn1" next?
Result: NO

Query: Can you handle CC1C(=O)OC2CC[N+]3([O-])CC=C(COC(=O)C(C)(O)C1(C)O)C23 (stereo not drawn) next?
Result: NO
